// provenance: patent US12662511B2

Test: Serum stability of MTS peptide
Format: in vitro ADME
Conditions: read-out: peptide remains intact
PROPERTY MEASURED: remaining at 24 h
State the value with its unit after it.

If you can, please state the reported remaining at 24 h value of CSCC[C@H](NC(=O)[C@H](CCC(N)=O)NC(=O)[C@H](Cc1c[nH]c2ccccc12)NC(=O)[C@H](CC(=O)O)NC(=O)[C@H](CC(C)C)NC(=O)[C@H](CO)NC(=O)[C@@H](NC(=O)[C@H](CCC(N)=O)NC(=O)[C@H](CC(C)C)NC(=O)[C@H](CCCCN)NC(=O)[C@H](Cc1ccc(O)cc1)NC(=O)[C@H](C)NC(=O)[C@H](CC(=O)O)NC(C)=O)[C@@H](C)O)C(=O)N[C@@H](Cc1c[nH]c2ccccc12)C(=O)N[C@@H](CC(N)=O)C(=O)N1CCC[C@H]1C(=O)NCCOCCOCCOCCOCCOCCOCCOCCOCCOCCOCCOCCC(N)=O [MTS-CPEC4_V2] .
80%
